Experiment description: inhibition of 3D7 malaria parasite growth – strain 3D7 (AID 2306);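 further: 0% = DMSO wells and 100% = chloroquine plus artemisinin control wells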
Experimental context: P. falciparum 3D7 erythrocytic growth, LDH absorbance, 72 h; at 2 µM; active compounds read high
Measure: growth inhibition (%)
Value expressed in %; do not type the unit.

What does the record list as growth inhibition for O=c1ccc(-c2nc3cc(Cl)c(Cl)cc3n2Cc2ccc(Cl)cc2Cl)c[nH]1 ? 88

What does the record list as growth inhibition for Cc1cccc(C(=O)NC(NC(=S)Nc2ccc([N+](=O)[O-])cc2)C(Cl)(Cl)Cl)c1 (centres undefined) ? 96

What does the record list as growth inhibition for CC(C)(C)c1ccc(CN2CCC(NC(=O)c3ccc(-c4ccccc4F)s3)CC2)cc1 ? 85

What does the record list as growth inhibition for Nc1cccc(CNCc2ccc(-c3ccc(-c4nc5ccc(F)cc5[nH]4)s3)cc2)c1 ? 102

What does the record list as growth inhibition for CCCN(CCCN(CCCN(CCC)C(C)C)c1cc(C)nc(Nc2ccc(Cl)cc2)n1)C(C)C ? 102

What does the record list as growth inhibition for CC(C)Cc1nc(N)nc(N)c1-c1ccc(Cl)cc1 ? 96

What does the record list as growth inhibition for COc1ccc2ncc(F)c(CCN3C[C@@H]4CCC[C@]4(CNCc4ccc5c(n4)NC(=O)CS5)C3)c2n1 ? 87

What does the record list as growth inhibition for Cc1sc2nc(CSc3ccccc3)nc(N3CCN(CC(=O)NC4CC4)CC3)c2c1C ? 96

What does the record list as growth inhibition for COc1ccc(-c2cn3c(C(=O)Nc4ccccc4Cl)c(-c4ccccc4)c4c3n2CCCC4)cc1 ? 100

What does the record list as growth inhibition for O=C(c1cccc(-c2ccc(-c3nc4ccc(C(F)(F)F)cc4[nH]3)cc2)c1)N1CCCCC1CN1CCC(O)C1 (centres undefined) ? 92

What does the record list as growth inhibition for O=c1cc(NCCCNCc2cc3ccccc3s2)[nH]c2ccccc12 ? 89

What does the record list as growth inhibition for COc1ccc(S(=O)(=O)Nc2ccc(C(=O)NCc3ccc(C(F)(F)F)cc3)cc2)cc1N1CCN(CC2CC2)CC1 ? 95

What does the record list as growth inhibition for CCc1cn(C)c2c(N3CCCC3=O)cc(C(=O)N[C@@H](Cc3ccccc3)[C@H](O)CNC(C)(C)CCCC(C)C)cc12 ? 97

What does the record list as growth inhibition for O=C(/C=C/c1ccc(F)cc1)NC1CCC(CCN2CCCN(c3ccc(C(F)(F)F)cn3)CC2)CC1 (centres undefined) ? 97

What does the record list as growth inhibition for O=C(Cc1ccccc1)NC(c1ccco1)c1cc(Cl)c2cccnc2c1O (centres undefined) ? 89

What does the record list as growth inhibition for COc1cccc(C2CCCN(CCCCNC(=O)c3ccc(NC(=O)c4ccc(Cl)cc4)cc3)C2)c1 (centres undefined) ? 95

What does the record list as growth inhibition for Cc1cccc2[nH]c(-c3ccc(-c4ccc(CN5CCN(CCN6CCOCC6)CC5)cc4)cc3)nc12 ? 98

What does the record list as growth inhibition for CCNCc1ccc(-c2cccc(-c3nc4ccccc4[nH]3)c2)cc1 ? 102

What does the record list as growth inhibition for Cc1ccnc(NC(c2cccc(Cl)c2Cl)c2ccc3cccnc3c2O)c1 (centres undefined) ? 86

* * *

Please provide measured growth inhibition for the entries that follow.
Experiment description: inhibition of 3D7 malaria parasite growth – strain 3D7 (AID 2306);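 further: 0% = DMSO wells and 100% = chloroquine plus artemisinin control wells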
Experimental context: P. falciparum 3D7 erythrocytic growth, LDH absorbance, 72 h; at 2 µM; active compounds read high
Calls of active or inactive are those of the source. No rule for the calls is given here.

What does the record list as growth inhibition for COc1ccc2ncc(F)c(CCN3CCC(NCc4cc5c(cn4)OCCS5)CC3)c2c1 ? 89% (active)

What does the record list as growth inhibition for CCNc1cc(C(=O)N[C@@H](Cc2ccccc2)[C@H](O)CNCc2cccc(-c3cncnc3)c2)cc(N2CCCC2=O)c1 ? 97% (active)

What does the record list as growth inhibition for CN1CCC(NCc2ccc(-c3cccc(S(=O)(=O)NCC4CCCO4)c3)cc2)CC1 (stereo not given) ? 90% (active)

What does the record list as growth inhibition for O=C1CCCN1CCCNCc1ccc(-c2cccc(-c3nc4ccc(F)cc4[nH]3)c2)cc1 ? 101% (active)

What does the record list as growth inhibition for Cc1ccc2cc(NC(=O)CCCCCCCON3C(N)=NC(N)=NC34CCCCC4)ccc2n1 ? 98% (active)

* * *

Please provide measured inhibition for the entries that follow.
Assayed system: L-lactate dehydrogenase (Plasmodium falciparum (isolate CDC / Honduras))
Experiment description: PfLDH activity inhibition – cell lysate, 3D7 strain, counter-screen for P. falciparum growth inhibition project (AID 2304);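 further: 0% = vehicle and 100% = reference inhibitor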
Experimental context: P. falciparum 3D7 crude extract, LDH APAD/NBT absorbance; at 2 µM; active compounds read high
Value expressed in %; do not type the unit.

What does the record list as inhibition for O=[N+]([O-])c1cccc(NC(=S)N2CCCN(Cc3ccc(C(F)(F)F)cc3)CC2)c1 ? 0

What does the record list as inhibition for O=C(Cc1ccc(NC(=O)c2ccc(O)c(-c3ccc(Cl)c(Cl)c3)c2)cc1)NCCc1ccc(Cl)c(Cl)c1 ? 2

What does the record list as inhibition for COc1ccc2nccc([C@@H](O)CN3CCC(NCc4nc5ccccc5s4)CC3)c2c1 ? -3

What does the record list as inhibition for CC(C)C[C@H](NC(=O)c1ccc(OCCN2CCOCC2)cc1)C(=O)N[C@H](/C=N/N1CCNC1=O)CCc1ccccc1 ? 4

What does the record list as inhibition for CCc1ccc(C2CCN(CCCCNC(=O)c3ccc(NC(=O)c4ccc(Cl)cc4)cc3)CC2)c(OCCO)c1 ? -3

What does the record list as inhibition for C=CCOc1ccc(CNC2CCN(Cc3ccccc3)CC2)cc1Br ? -2

What does the record list as inhibition for COc1ccc(NC(=O)[C@H](Cc2ccccc2)Nc2cc(C)nc(NCCN3CCCC3)n2)cc1 ? -2

What does the record list as inhibition for COc1ccccc1N1CCN(CCCCN(C(=O)Nc2cccc(Cl)c2)C(=O)Nc2cccc(Cl)c2)CC1 ? 7

What does the record list as inhibition for O=C(/C=C/c1ccc(Cl)c(Cl)c1)NCCCCCN1CCCN(C(=O)Nc2ccc(Cl)cc2)CC1 ? -5

What does the record list as inhibition for c1ccc2c(C3CCN(CCCCOc4ccc5c(c4)CCN(CC4CC4)CC5)CC3)c[nH]c2c1 ? -8

What does the record list as inhibition for CCN(CC)CCN(Cc1ccc(-c2ccc(C(F)(F)F)cc2)cc1)C(=O)Cn1cc(CCCc2cccc(F)c2F)c(=O)c2ccccc21 ? -4

What does the record list as inhibition for O=C1CCCN1CCCNCc1ccc(-c2ccc(-c3nc4ccc(F)cc4[nH]3)s2)cc1 ? 0

What does the record list as inhibition for CC(CN1CCN(C)CC1)C(=O)Nc1cccc(-c2cccc(-c3nc4ccc(F)cc4[nH]3)c2)c1 (stereo not drawn) ? -2

What does the record list as inhibition for CCN(CC1CCN(CC2(O)CCOCC2)CC1)c1cc(C)nc(Nc2ccc(Cl)cc2)n1 ? -4

What does the record list as inhibition for CCN(CCO)CCc1cccc(Nc2nccc(-c3c(-c4ccc(NC(=O)C(C)(C)C)cc4)nn4ccccc34)n2)c1 ? 4

What does the record list as inhibition for COCCCNc1sc(S(=O)(=O)c2ccccc2)nc1S(=O)(=O)c1ccc(Cl)cc1 ? 4

What does the record list as inhibition for O=C(/C=C/c1ccc(Cl)c(Cl)c1)NCCCCCN1CCCN(C(=O)Nc2ccc([N+](=O)[O-])cc2)CC1 ? -1

What does the record list as inhibition for COc1ccc2ccc(F)c(CC(=O)N3CCOC(CNCc4cccc(-c5ccc(F)cc5)n4)C3)c2n1 (stereo not drawn) ? 6

* * *

Please provide measured inhibition for the entries that follow.
Experiment description: human hepatoma cell viability loss – ATP luminescence, cytotoxicity control for P. falciparum antimalarial project, primary screen (AID 2303);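 further: 0% = DMSO wells and 100% = digitonin-killed cells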
Experimental context: HepG2 viability, 24-48 h, at 10 µM, active compounds read high
Value expressed in %; do not type the unit.

What does the record list as inhibition for Cc1ccc(NS(=O)(=O)c2ccc(-c3ccccc3)cc2)c(Cn2cnc(N3CCCNCC3)cc2=O)c1 ? 10

What does the record list as inhibition for O=S(=O)(Nc1cccc(CCN2CCC(N3CCCCC3)CC2)c1)c1ccccc1C(F)(F)F ? 21

What does the record list as inhibition for CCN(CC(C)O)C(=O)c1ccc(-c2cccc(-c3nc4c(C)cccc4[nH]3)c2)cc1 (stereo not given) ? 28

What does the record list as inhibition for Oc1c(CN2CCC(Cc3ccccc3)CC2)cc(Cl)c2cccnc12 ? 49

What does the record list as inhibition for O=C(NCCCN1CCOCC1)c1csc(Nc2ccc(Cl)c(Cl)c2)n1 ? 5

What does the record list as inhibition for NC(N)=Nc1nc(-c2ccc(NC(=O)Nc3cccc(-c4csc(N=C(N)N)n4)c3)cc2)cs1 ? -9

What does the record list as inhibition for CC1CCCN(c2ccc(NC(=O)c3cccs3)cc2[N+](=O)[O-])C1 (stereo not given) ? 14

What does the record list as inhibition for C#CCOc1ccc(N2C(N)=NC(N)=NC2(C)C)cc1 ? 43

What does the record list as inhibition for Cc1cccc2[nH]c(-c3ccc(-c4cccc(CNC5CCN(C)CC5)c4)s3)nc12 ? 21

What does the record list as inhibition for Cc1cc(NN=Cc2ccc(F)cc2)c2cc(C(F)(F)F)ccc2n1 ? 2

What does the record list as inhibition for COc1ccc2ccccc2c1C=NNc1ccnc2cc(Cl)ccc12 ? 20

What does the record list as inhibition for CCC(C(=O)Nc1ccccc1)n1nc(-c2ccc(C)c(S(=O)(=O)N3CCCCC3)c2)ccc1=O (stereo not given) ? -2

What does the record list as inhibition for O=C(Nc1ccc(Cl)cc1)c1ccc(CN2CCCN(Cc3cccc(F)c3)CC2)cc1 ? 59

What does the record list as inhibition for O=C1COc2ccc(S(=O)(=O)N3CCC[C@@H]3CCN3CCC(c4c[nH]c5cnccc45)CC3)cc2N1 ? -8

What does the record list as inhibition for COc1ccccc1Cn1ccnc1SCC(=O)Nc1cc(C(F)(F)F)ccc1Cl ? 12

What does the record list as inhibition for O=C(/C=C/c1ccc(Cl)c(Cl)c1)NC1CCN(Cc2cccc(O)c2)CC1 ? -3

What does the record list as inhibition for O=C(/C=C/c1cccc(Br)c1)NCCCCCN1CCC(c2c[nH]c3ccccc23)CC1 ? 38

What does the record list as inhibition for CCCCCN1CCCN(Cc2cccc(NC(=O)c3cc4ccccc4s3)c2)CC1 ? 29

What does the record list as inhibition for FC(F)(F)c1ccc2nc(-c3ccc(-c4ccc(CN5CCN(c6cnccn6)CC5)cc4)cc3)[nH]c2c1 ? 21

What does the record list as inhibition for COc1cc(NC2=C(c3ccccc3)C(=O)c3ccccc32)ccn1 ? 7

What does the record list as inhibition for CC(CN1CCN(C)CC1)C(=O)Nc1cccc(-c2cccc(-c3nc4ccc(F)cc4[nH]3)c2)c1 (stereo not given) ? 23

What does the record list as inhibition for COC(=O)c1ccc2nc(-c3cc(OC)c(O)c(C(=O)NC4CCN(Cc5ccccc5)CC4)c3)[nH]c2c1 ? 8

What does the record list as inhibition for CCOc1ccc(C(C)NC(=O)Nc2ccccc2)cc1OCC (stereo not given) ? 14

What does the record list as inhibition for CN(C)S(=O)(=O)c1ccc(Nc2nc(NCCC3C=NC=N3)nc3cc[nH]c(=O)c23)cc1 (stereo not given) ? 8

What does the record list as inhibition for O=C(Cn1c(=O)oc2ccccc21)N1CCC(n2c(=O)n(CCCN3CCOCC3)c3ccccc32)CC1 ? 11

What does the record list as inhibition for COc1cc(C(=O)N2COCC(CCCN3CCC(N4CCCC4)CC3)(c3ccc(Cl)c(Cl)c3)C2)cc(OC)c1OC (stereo not given) ? 5

What does the record list as inhibition for O=C(Nc1ccc(OC2CCN(Cc3ccc(F)cc3)C2)c(Cl)c1)c1ccsc1 (stereo not given) ? 26

What does the record list as inhibition for CCOc1ncccc1CN1CCC(N2CCc3cc(NC(=O)c4ccco4)ccc32)C1 (stereo not given) ? 3

What does the record list as inhibition for Cc1cc(NCCc2cccc(F)c2)nc(/N=C(\N)Nc2cccc(C(F)(F)F)c2)n1 ? 42

What does the record list as inhibition for O=C(Nc1cccnc1)c1ccc(-c2cc3ccncc3cc2OC2CCNCC2)s1 ? -5

What does the record list as inhibition for Oc1ccccc1CCNCC1CCc2ccccc2C1 (stereo not given) ? 37

What does the record list as inhibition for Cc1ccc2[nH]c(C)c(Br)c(=O)c2c1 ? -4

What does the record list as inhibition for CO/C(=C\C=C\c1cc2cc(Cl)c(Cl)cc2[nH]1)C(=O)NC1CCN(CCNc2ccccc2)CC1 ? 60

What does the record list as inhibition for Cc1ccc(NC(=O)N2CCC(n3c(-c4ccccc4)nc4cccnc43)CC2)cc1F ? 23

What does the record list as inhibition for CC(Nc1nc(Nc2ccc(F)cc2)nc(SCC(N)=O)n1)c1ccccc1 (stereo not given) ? 14

What does the record list as inhibition for CN1CCCN(Cc2ccc(-c3ccc(NC(=O)c4cccc(Cl)c4)cc3)cc2)CC1 ? 55

What does the record list as inhibition for NC1=NC2(CCCCC2)N(OCCCCCCC2CCCCC2)C(N)=N1 ? 77

What does the record list as inhibition for CN1CCN(c2cc(NC(=O)Nc3cccc(Cl)c3Cl)ccc2Cl)CC1 ? 2

What does the record list as inhibition for COC(=O)c1cccc(CNCc2cccc(-c3ccc(-c4nc5ccccc5[nH]4)s3)c2)c1 ? -2

What does the record list as inhibition for CN1CCN(c2ccnc3ccc(NC(=O)Nc4ccc(-c5ccccc5)cc4)cc23)CC1 ? -10
